Test system: HT-29
Experiment: NCI tumour cell line growth inhibition, 48 h
Active and inactive are the calls of the source. Cut-off read from the data, not from the text of the source: active = GI50 up to about 1.1 µM and inactive = higher.
Experimental endpoint: GI50

Please report GI50 for the following molecule: COc1ccc2c(c1)-c1oc3ccccc3c(=O)c1CO2
31.1 µM (inactive)

Please report GI50 for the following molecule: O=P(O)(O)CC1OC(CO)C(O)C1O (stereo unspecified)
> 100 µM (inactive)

Please report GI50 for the following molecule: CN(C)CC1CCC/C(=C\c2ccccc2)C1=O (stereo unspecified)
1.75 µM (inactive)

Please report GI50 for the following molecule: O=C(O)C(=C\c1ccc2c(c1)OCO2)/C(=C/c1ccc2c(c1)OCO2)C(=O)O
> 100 µM (inactive)

Please report GI50 for the following molecule: COC(=O)C(C)(C)[C@@H]1OC(=O)N(S(=O)(=O)c2c(C)cc(C)cc2C)[C@H]1C(C)C
65.8 µM (inactive)

Please report GI50 for the following molecule: COc1cccc(/C=C2/S/C(=N/Nc3nc(C)c(C(C)=O)s3)NC2=O)c1O
37.6 µM (inactive)

###

Give GI50 for every item shown.
Tested on: SR
Test: NCI tumour cell line growth inhibition, 48 h
Active and inactive are the calls of the source. Cut-off read from the data, not from the text of the source: active = GI50 up to about 1.1 µM and inactive = higher.

Please report GI50 for the following compound: OC1(CCc2ccccc2)COC(C(F)(F)F)(C(F)(F)F)C1 (stereo unspecified)
> 100 µM (inactive)

Please report GI50 for the following compound: O=C1CCC(=O)c2c1c(O)c1ccncc1c2O
13 µM (inactive)

Please report GI50 for the following compound: Cc1c[nH]c(C(=O)O)c1-c1cccn1-c1ccc(Cl)cc1[N+](=O)[O-]
99.3 µM (inactive)

Please report GI50 for the following compound: CC(=O)OCC1OC(n2c3c(c(-c4ccc(Cl)cc4)c(C#N)c2=S)CCCC3)C(OC(C)=O)C(OC(C)=O)C1OC(C)=O (stereo unspecified)
> 100 µM (inactive)

Please report GI50 for the following compound: COC1OC2COC1(OC)C1OC(C)(C)OC21 (stereo unspecified)
> 100 µM (inactive)

Please report GI50 for the following compound: O=C1NC(c2cccc3ccccc23)Nc2ccccc21 (stereo unspecified)
< 0.0153 µM (active)

Please report GI50 for the following compound: Cc1ccc(C)c2c1NC(=O)/C2=N\Nc1ccccc1[N+](=O)[O-]
1.61 µM (inactive)

Please report GI50 for the following compound: C=C(CCOC)CCC1CCCCC/C1=N\N(C)C (stereo unspecified)
> 100 µM (inactive)

Please report GI50 for the following compound: CSC1(C)C(=O)Nc2c(OCc3ccccc3)cc([N+](=O)[O-])cc21 (stereo unspecified)
> 100 µM (inactive)

Please report GI50 for the following compound: Cc1cc2nnn(C3CCCO3)c2cc1C (stereo unspecified)
> 100 µM (inactive)

Please report GI50 for the following compound: COc1ccc(CCc2ccc(O)c(C(=O)O)c2)cc1OC
> 100 µM (inactive)

###

System: U-251
Experiment: NCI tumour cell line growth inhibition, 48 h
Active and inactive are the calls of the source. Rule as the data show it: active = GI50 up to about 1.1 µM and inactive = higher.
Give GI50 for every item shown.

Please report GI50 for the following molecule: COC(=O)c1ccccc1C1CN=NC12Cc1c(C)cccc1C2=O (centres undefined)
80.7 µM (inactive)

Please report GI50 for the following molecule: CNC(=O)NCNC(=O)NC
> 100 µM (inactive)

Please report GI50 for the following molecule: Oc1cc(O)c2c(c1)O[C@H](c1cc(O)c(O)c(O)c1)[C@H](O)C2 [EPIGALLOCATECHIN]
16.4 µM (inactive)

Please report GI50 for the following molecule: N#CNC(=N)Nc1ccc(Cl)cc1
> 100 µM (inactive)
